Could you please report measured EC50 for the items listed next?
target: GST-LXRβ ligand-binding domain (Homo sapiens, UniProt P55055, INS174Q); construct: amino acids 156-461; NP009052; test: TR-FRETβ activity assay (NCoA3 coactivator peptide recruitment); details: 1 μM 24(S)-25-epoxycholesterol as prestimulating agonist; inverse agonist unless *
Sequence (P55055 with tags, fused parts or gaps INS174Q limits assumed): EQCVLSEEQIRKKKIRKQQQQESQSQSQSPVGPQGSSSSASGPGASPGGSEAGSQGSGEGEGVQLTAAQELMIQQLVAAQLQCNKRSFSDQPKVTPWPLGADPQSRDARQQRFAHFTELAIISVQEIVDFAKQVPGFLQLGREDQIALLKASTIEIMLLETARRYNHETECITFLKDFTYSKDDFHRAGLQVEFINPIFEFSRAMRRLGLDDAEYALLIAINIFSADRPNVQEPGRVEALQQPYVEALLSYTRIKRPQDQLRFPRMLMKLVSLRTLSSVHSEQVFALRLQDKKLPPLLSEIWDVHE

For each entry beneath this line, provide reported EC50.
1. Cc1cc(C(=O)N(Cc2ccc(-c3cccc(C(C)(C)C(=O)O)c3)cc2)Cc2ccc(C(F)(F)F)o2)c2ncccc2n1
2. COc1ccc2c(c1CN(Cc1ccc(-c3cccc(C(C)(C)C(=O)O)c3)cc1)Cc1ccc(C(F)(F)F)o1)CCCC2
3. Cc1cc(F)cc(C)c1C(=O)N(Cc1ccc(-c2cccc(C(C)(C)C(=O)O)c2)cc1)Cc1ccc(C(F)(F)F)o1
4. CNc1nc(-c2cccc(C(C)(C)C(=O)O)c2)ccc1CN(Cc1ccc(C(F)(F)F)o1)C(=O)c1c(C)ccc2ccccc12
5. Cc1ccc2ccccc2c1C(=O)N(Cc1ccc(-c2cccc(C(C)(C)C(=O)NO)c2)cc1)Cc1ccc(C(F)(F)F)o1
6. Cc1ccc2ccccc2c1CN(Cc1ccc(-c2nc(C(C)(C)C(=O)O)cs2)cc1)Cc1ccc(C(F)(F)F)o1
7. Cc1ccc2ccc(C#N)cc2c1CN(Cc1ccc(-c2cccc(C(C)(C)C(=O)O)c2)cc1)Cc1ccc(C(F)(F)F)o1

["1 to 10 µM", "0.1 to 1 µM", "0.1 to 1 µM", "> 10 µM", "< 0.1 µM", "1 to 10 µM", "0.1 to 1 µM"]

Reference for the values: patent US20200131144A1
